The values you see were collected from ChEMBL document CHEMBL4831525.

target: Fibroblast growth factor receptor 1 (Homo sapiens)
Sequence (P11362 whole entry): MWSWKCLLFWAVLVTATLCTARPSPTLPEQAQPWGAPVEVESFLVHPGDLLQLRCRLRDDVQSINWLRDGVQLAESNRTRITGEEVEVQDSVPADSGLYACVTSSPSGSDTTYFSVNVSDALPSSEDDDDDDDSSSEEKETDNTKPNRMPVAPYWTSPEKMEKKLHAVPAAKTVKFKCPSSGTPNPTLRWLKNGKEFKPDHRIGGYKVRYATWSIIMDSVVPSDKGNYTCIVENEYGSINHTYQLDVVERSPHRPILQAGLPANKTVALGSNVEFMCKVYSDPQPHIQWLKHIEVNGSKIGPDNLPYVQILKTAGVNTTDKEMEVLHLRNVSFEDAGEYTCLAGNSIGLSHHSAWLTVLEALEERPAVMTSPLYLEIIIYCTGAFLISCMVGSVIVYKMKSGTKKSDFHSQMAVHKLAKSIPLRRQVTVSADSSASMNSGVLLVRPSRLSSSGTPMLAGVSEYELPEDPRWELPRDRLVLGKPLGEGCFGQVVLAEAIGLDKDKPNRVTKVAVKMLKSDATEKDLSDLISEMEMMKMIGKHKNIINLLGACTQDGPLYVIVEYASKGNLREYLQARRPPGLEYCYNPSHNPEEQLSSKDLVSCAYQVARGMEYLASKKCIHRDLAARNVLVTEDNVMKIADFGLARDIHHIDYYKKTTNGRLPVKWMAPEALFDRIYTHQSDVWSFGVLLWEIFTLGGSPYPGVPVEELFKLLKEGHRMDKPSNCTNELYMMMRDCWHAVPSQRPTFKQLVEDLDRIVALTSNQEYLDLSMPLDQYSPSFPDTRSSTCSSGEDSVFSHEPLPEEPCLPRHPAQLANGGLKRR
Below is a list of entries, each paired with its recorded pIC50 value.
Scale for pIC50: -log10 of concentration given in mol/L; no unit attached.

[[record]]
chemical_structure = "C=CC(=O)Nc1cc(S(N)(=O)=O)cc(C)c1Nc1ncc2cc(-c3c(Cl)c(OC)cc(OC)c3Cl)ccc2n1"
reported_value = 6.10


q: Look up pIC50 for this molecule: C=CC(=O)Nc1cc(S(C)(=O)=O)cc(C)c1Nc1ncc2cc(-c3c(Cl)c(OC)cc(OC)c3Cl)ccc2n1
a: 6.05

q: Please answer likewise for C=CC(=O)Nc1cc(SC)ccc1Nc1ncc2cc(-c3c(Cl)c(OC)cc(OC)c3Cl)ccc2n1
a: 7.41

---

assay: Stability of the compound in rat plasma assessed as parent compound remaining incubated for 60 mins; type: ADME, cell-free; details: read-out: Stability
MEASUREMENT KIND: remaining at 1 h (%)
Answer in %, number only, no unit symbol.

q: What does the data say about its remaining at 1 h? Entry: C=CC(=O)Nc1cc(S(N)(=O)=O)cc(C)c1Nc1ncc2cc(-c3c(Cl)c(OC)cc(OC)c3Cl)ccc2n1
a: 80

---

biological target: Fibroblast growth factor receptor 2 (Homo sapiens, UniProt P21802)
Sequence (P21802 whole entry): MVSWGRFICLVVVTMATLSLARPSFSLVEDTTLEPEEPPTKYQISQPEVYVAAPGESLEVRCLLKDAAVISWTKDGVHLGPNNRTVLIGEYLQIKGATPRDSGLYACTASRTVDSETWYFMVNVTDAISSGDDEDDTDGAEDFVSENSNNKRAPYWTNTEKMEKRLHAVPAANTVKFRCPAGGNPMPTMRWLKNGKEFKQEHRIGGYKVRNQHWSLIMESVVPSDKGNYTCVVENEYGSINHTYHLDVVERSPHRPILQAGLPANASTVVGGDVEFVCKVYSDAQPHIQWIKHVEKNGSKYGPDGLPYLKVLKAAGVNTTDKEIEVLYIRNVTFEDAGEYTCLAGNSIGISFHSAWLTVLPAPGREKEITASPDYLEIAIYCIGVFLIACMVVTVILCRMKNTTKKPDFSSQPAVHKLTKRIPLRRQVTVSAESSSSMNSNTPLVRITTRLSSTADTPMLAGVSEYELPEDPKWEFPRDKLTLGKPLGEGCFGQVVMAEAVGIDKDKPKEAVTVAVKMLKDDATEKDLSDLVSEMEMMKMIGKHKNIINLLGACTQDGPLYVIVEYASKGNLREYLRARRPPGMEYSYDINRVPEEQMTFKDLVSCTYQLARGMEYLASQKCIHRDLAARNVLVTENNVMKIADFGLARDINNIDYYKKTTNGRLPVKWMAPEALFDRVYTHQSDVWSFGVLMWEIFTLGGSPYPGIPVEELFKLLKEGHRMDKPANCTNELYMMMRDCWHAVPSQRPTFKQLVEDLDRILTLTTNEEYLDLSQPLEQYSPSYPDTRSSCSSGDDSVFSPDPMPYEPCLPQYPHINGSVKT
MEASUREMENT KIND: IC50 (nM)
The reply should be a number in nM, with the unit left off.

Use these answered entries as a reference point.
[[record]]
chemical_structure = "C=CC(=O)Nc1cc(S(C)(=O)=O)ccc1Nc1ncc2cc(-c3c(Cl)c(OC)cc(OC)c3Cl)ccc2n1"
unit_spec = "nM"
reported_value = 15

[[record]]
chemical_structure = "C=CC(=O)Nc1cc(S(N)(=O)=O)cc(C)c1Nc1ncc2cc(-c3c(Cl)c(OC)cc(OC)c3Cl)ccc2n1"
unit_spec = "nM"
reported_value = 341


Switching to the query record.
q: Tell me the measured IC50 of C=CC(=O)Nc1cc(SC)ccc1Nc1ncc2cc(-c3c(Cl)c(OC)cc(OC)c3Cl)ccc2n1 , please.
a: 24

---

Listed below: pIC50 values for each entry.
biological target: UniProt P22607
Sequence (P22607 whole entry): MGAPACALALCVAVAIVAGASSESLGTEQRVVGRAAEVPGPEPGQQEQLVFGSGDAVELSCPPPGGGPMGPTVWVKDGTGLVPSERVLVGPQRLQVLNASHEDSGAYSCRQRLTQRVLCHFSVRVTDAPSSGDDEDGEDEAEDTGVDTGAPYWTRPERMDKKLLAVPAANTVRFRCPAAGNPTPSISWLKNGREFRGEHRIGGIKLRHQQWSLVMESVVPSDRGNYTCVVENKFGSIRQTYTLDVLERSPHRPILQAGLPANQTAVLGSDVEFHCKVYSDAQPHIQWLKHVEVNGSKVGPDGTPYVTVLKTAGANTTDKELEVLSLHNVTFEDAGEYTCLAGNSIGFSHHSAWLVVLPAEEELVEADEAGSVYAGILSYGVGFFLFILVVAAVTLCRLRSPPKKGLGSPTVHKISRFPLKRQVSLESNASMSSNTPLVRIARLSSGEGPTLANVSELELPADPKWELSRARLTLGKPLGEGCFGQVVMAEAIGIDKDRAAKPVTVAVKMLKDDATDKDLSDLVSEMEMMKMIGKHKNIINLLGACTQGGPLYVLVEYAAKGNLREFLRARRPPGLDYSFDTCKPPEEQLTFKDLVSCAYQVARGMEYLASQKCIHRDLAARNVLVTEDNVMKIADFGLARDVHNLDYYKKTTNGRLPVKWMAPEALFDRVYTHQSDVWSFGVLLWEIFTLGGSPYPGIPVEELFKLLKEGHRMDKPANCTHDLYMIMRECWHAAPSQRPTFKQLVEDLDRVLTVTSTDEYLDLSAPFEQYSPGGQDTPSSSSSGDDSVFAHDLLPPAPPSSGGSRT
pIC50 is a log-scale quantity: -log10 of the concentration expressed in molar.

[[record]]
chemical_structure = "C=CC(=O)Nc1cc(S(C)(=O)=O)cc(C)c1Nc1ncc2cc(-c3c(Cl)c(OC)cc(OC)c3Cl)ccc2n1"
system = "UniProt P22607"
measurement_kind = "pIC50"
reported_value = 5.41

[[record]]
chemical_structure = "C=CC(=O)Nc1cc(S(C)(=O)=O)ccc1Nc1ncc2cc(-c3c(Cl)c(OC)cc(OC)c3Cl)ccc2n1"
system = "UniProt P22607"
measurement_kind = "pIC50"
reported_value = 6.99


q: Entry C=CC(=O)Nc1cc(SC)ccc1Nc1ncc2cc(-c3c(Cl)c(OC)cc(OC)c3Cl)ccc2n1 : reported pIC50 = ?
a: 7.10

q: Then C=CC(=O)N[C@H]1CCOC[C@H]1Nc1ncc2cc(-c3c(Cl)c(OC)cc(OC)c3Cl)ccc2n1 ?
a: 5.66
